Property: log10 Ki; scope: individual compounds
Biological target: α1b-adrenoceptor (recombinant) (Homo sapiens, UniProt P35368)
Sequence (P35368 1-520): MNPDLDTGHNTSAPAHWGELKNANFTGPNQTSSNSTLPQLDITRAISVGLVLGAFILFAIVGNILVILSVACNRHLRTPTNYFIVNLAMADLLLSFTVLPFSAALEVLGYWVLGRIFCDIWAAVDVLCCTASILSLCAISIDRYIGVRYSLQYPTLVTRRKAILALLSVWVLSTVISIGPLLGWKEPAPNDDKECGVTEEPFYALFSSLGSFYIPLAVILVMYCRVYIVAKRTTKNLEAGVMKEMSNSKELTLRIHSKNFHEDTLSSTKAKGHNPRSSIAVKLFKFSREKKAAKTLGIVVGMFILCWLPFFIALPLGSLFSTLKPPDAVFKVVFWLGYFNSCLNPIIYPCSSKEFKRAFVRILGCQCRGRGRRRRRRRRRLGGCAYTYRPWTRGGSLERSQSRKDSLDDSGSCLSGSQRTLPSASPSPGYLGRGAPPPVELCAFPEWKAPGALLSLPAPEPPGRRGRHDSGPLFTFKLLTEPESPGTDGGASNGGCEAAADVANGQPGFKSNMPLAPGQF
Experiment: Radioligand binding, cloned α1b-adrenoceptor ([3H]prazosin)
Conditions: read-out: Affinity for recombinant α1b-adrenoceptor, cloned receptors (Ki)
endpoint: log10 Ki (log10 of the value in nM)

| molecule.smiles | log10 Ki |
| --- | --- |
| COc1ccc(OCC(F)(F)F)cc1N1CCN(CCCNC(=O)c2cccc3c(=O)c(C)c(-c4ccccc4)oc23)CC1 | 1.50 |
| Cc1c(C(N)=O)oc2c(C(=O)NCCCN3CCN(c4ccccc4OCC(F)(F)F)CC3)cccc2c1=O | 1.16 |
| COc1ccc(Cl)cc1N1CCN(CCCNC(=O)c2cccc3c(=O)c(C)c(C(C)=O)oc23)CC1 | 0.37 |
| Cc1c(C(N)=O)oc2c(C(=O)NCCCN3CCN(c4cc(Cl)ccc4OS(=O)(=O)C(F)(F)F)CC3)cccc2c1=O | 0.00 |
| COc1ccc(Cl)cc1N1CCN(CCCNC(=O)c2cccc3c(=O)c(C)c(C(N)=O)oc23)CC1 | 0.42 |
